Where these numbers come from: PubChem BioAssay (NCI)

# assay-remarks: NCI Yeast Anticancer Drug Screen. Data for the bub3 strain (AID 167)
# experimental-setup: S. cerevisiae bub3 mutant strain, at 50.0 µM, stronger effect = higher value
About 79,000 compounds went through this panel and 15% of them were active in at least one assay; those are over-represented in the sample as a whole.
Kindly return YES if reported growth inhibition is no lower than 70%; return NO if it is lower.

>>> qualitative_label("c1ccc2c(c1)CCCc1cc3ccccc3nc1-2")
"YES"
>>> qualitative_label("COc1ccc(C(=O)C2OC2c2ccccc2)cc1 (stereo not drawn)")
"NO"
>>> qualitative_label("O=C(c1ccccc1)c1cccc2ccccc12")
"NO"

# check: growth inhibition of CCC1CCC2=C(C1)C(=O)c1ccccc1C2=O (stereo not drawn) is greater than or equal to 70%
YES

# check: growth inhibition of "Cc1cc(NC(=S)SCc2ccc3c(c2)OCO3)ccc1Cl" is greater than or equal to 70%
YES

# check: growth inhibition of "Cc1nc(Nc2ccccc2)sc1C(=O)NNc1ccc([N+](=O)[O-])cc1[N+](=O)[O-]" is greater than or equal to 70%
NO

# check: growth inhibition of "CN(C)N=Nc1ccc(NC(N)=O)cc1" is greater than or equal to 70%
NO

# check: growth inhibition of "O=C(c1ccccc1)N1CCN(c2cccc(Cl)c2)CC1" is greater than or equal to 70%
YES

# check: growth inhibition of "Cc1cc(C)nc(/C=C/c2ccccc2)c1" is greater than or equal to 70%
YES

# check: growth inhibition of "CCCCCC[C@@H](O)C/C=C\CCCCCCCC(=O)OCCCC" is greater than or equal to 70%
NO

# check: growth inhibition of "N#CSCCl" is greater than or equal to 70%
YES

# check: growth inhibition of O=C1CCCCC1Sc1ccc(Cl)cc1 (stereo not drawn) is greater than or equal to 70%
YES

# check: growth inhibition of "O=C(NN=C1CCCCC1)c1ccc([N+](=O)[O-])cc1" is greater than or equal to 70%
NO

# check: growth inhibition of "COC(=O)CNC(=O)C(F)(F)F" is greater than or equal to 70%
NO

# check: growth inhibition of "O=C(CSc1cc[o+]cc1)c1cccc([N+](=O)[O-])c1" is greater than or equal to 70%
YES

# check: growth inhibition of "CCN(CC)CCO/N=C1\CC[C@H]2[C@@H]3CCc4cc(OC)ccc4[C@H]3CC[C@]12C" is greater than or equal to 70%
YES

# check: growth inhibition of O=C1CCC(Cc2ccc(Br)cc2)C(=O)N1 (stereo not drawn) is greater than or equal to 70%
NO

# check: growth inhibition of O=C1/C(=C\c2ccc(Cl)cc2)SC2SC=C(c3ccc([N+](=O)[O-])cc3)N12 (stereo not drawn) is greater than or equal to 70%
YES

# check: growth inhibition of "CCOC(=O)c1ccc(-n2c(C)nc3ccc(Br)cc3c2=O)cc1" is greater than or equal to 70%
YES

# check: growth inhibition of "CC1(C)N=C(N)N=C(N)N1c1cccc(OCc2cccc(N)c2)c1" is greater than or equal to 70%
NO
